These entries and their values trace back to ChEMBL document CHEMBL3621041.

Experiment: Oral bioavailability in CD1 mouse at 13 umol/kg
Assay type: ADME, organism-based
Settings: in vivo

{"COMPOUND SMILES": "CC(C)CN1[C@H](c2ccc(/C=C/C(=O)O)cc2)c2[nH]c3ccccc3c2C[C@H]1C", "bioavailability, %": 86}

###

Experiment: Oral bioavailability in Alderley Park beagle dog at 5 umol/kg
Assay type: ADME, organism-based, Canis lupus familiaris
Conditions: in vivo
VALUE KIND: bioavailability (%)

{"COMPOUND SMILES": "C[C@@H]1Cc2c([nH]c3ccccc23)[C@@H](c2c(F)cc(/C=C/C(=O)O)cc2F)N1CC(C)(C)F", "VALUE KIND": "bioavailability", "VALUE": 79}
{"COMPOUND SMILES": "CC(C)CN1[C@H](c2ccc(/C=C/C(=O)O)cc2)c2[nH]c3ccccc3c2C[C@H]1C", "VALUE KIND": "bioavailability", "VALUE": 111}

###

Test: Clearance in Han Wistar rat at 2.2 umol/kg, iv and […] umol/kg, po
Format: ADME, organism-based
Conditions: in vivo
VALUE KIND: clearance (mL/min/kg)

{"COMPOUND SMILES": "C[C@@H]1Cc2c([nH]c3ccccc23)[C@@H](c2c(F)cc(/C=C/C(=O)O)cc2F)N1CC(C)(C)F", "VALUE KIND": "clearance", "VALUE": 1}

###

Experiment: Oral bioavailability in Han Wistar rat at 4.5 umol/kg
Assay type: ADME, organism-based
Settings: in vivo

{"COMPOUND": "C[C@@H]1Cc2c([nH]c3ccccc23)[C@@H](c2c(F)cc(/C=C/C(=O)O)cc2F)N1CC(C)(C)F [AZD-9496]", "OUTPUT UNIT": "%", "bioavailability": 63}

###

Assay: Volume of distribution at steady state in Han Wistar rat at 2.2 umol/kg, iv and 4.5 umol/kg, po
Format: ADME, organism-based
Settings: in vivo, read-out: Vdss

{"COMPOUND": "C[C@@H]1Cc2c([nH]c3ccccc23)[C@@H](c2c(F)cc(/C=C/C(=O)O)cc2F)N1CC(C)(C)F [AZD-9496]", "Vd, L/kg": 0.43}

###

Experiment: Volume of distribution at steady state in Han Wistar rat at 5 umol/kg, iv and 13 umol/kg, po
Assay type: ADME, organism-based
Details: in vivo, read-out: Vdss
VALUE KIND: Vd (L/kg)

{"COMPOUND SMILES": "CC(C)CN1[C@H](c2ccc(/C=C/C(=O)O)cc2)c2[nH]c3ccccc3c2C[C@H]1C", "OUTPUT UNIT": "L/kg", "VALUE": 1.1}

###

Experiment: Oral bioavailability in Han Wistar rat at 13 umol/kg
Type: ADME, organism-based
Conditions: in vivo
VALUE KIND: bioavailability (%)

{"COMPOUND SMILES": "CC(C)CN1[C@H](c2ccc(/C=C/C(=O)O)cc2)c2[nH]c3ccccc3c2C[C@H]1C", "OUTPUT UNIT": "%", "VALUE": 80}

###

pIC50: −log10 of the molar value.
System: Estrogen receptor (Homo sapiens, UniProt P03372) | Read-out: pIC50
Sequence (P03372 whole entry): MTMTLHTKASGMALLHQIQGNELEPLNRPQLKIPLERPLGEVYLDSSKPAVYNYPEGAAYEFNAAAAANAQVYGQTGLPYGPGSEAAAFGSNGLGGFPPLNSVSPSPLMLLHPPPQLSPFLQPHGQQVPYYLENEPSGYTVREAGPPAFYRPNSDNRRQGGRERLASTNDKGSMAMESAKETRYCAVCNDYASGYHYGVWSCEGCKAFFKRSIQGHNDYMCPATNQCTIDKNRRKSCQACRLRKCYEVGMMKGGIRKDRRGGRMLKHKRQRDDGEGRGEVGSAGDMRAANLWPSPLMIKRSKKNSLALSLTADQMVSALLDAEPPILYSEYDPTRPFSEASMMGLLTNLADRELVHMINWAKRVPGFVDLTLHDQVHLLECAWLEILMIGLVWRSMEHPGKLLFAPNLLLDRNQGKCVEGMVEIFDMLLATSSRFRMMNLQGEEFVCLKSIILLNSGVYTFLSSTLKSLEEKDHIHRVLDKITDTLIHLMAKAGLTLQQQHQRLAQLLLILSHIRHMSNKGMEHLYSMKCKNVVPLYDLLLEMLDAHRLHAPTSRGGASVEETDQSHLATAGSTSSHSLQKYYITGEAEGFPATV

{"COMPOUND": "OCCN1CCc2c([nH]c3ccccc23)C1c1ccc(Cl)cc1 (racemic)", "pIC50": 5.69}
{"COMPOUND": "C[C@@H](CO)CN1[C@H](c2ccc(/C=C/C(=O)O)cc2)c2[nH]c3ccccc3c2C[C@H]1C", "pIC50": 7.01}
{"COMPOUND": "C[C@@H]1Cc2c([nH]c3ccccc23)[C@@H](c2ccc(/C=C/C(=O)O)cc2)N1CCO", "pIC50": 6.16}
{"COMPOUND": "CC(C)CN1[C@H](c2c(F)cc(/C=C/C(=O)O)cc2F)c2[nH]c3ccccc3c2C[C@H]1C", "pIC50": 9.15}
{"COMPOUND": "C[C@H](CO)CN1[C@H](c2ccc(/C=C/C(=O)O)cc2)c2[nH]c3ccccc3c2C[C@H]1C", "pIC50": 7.16}
{"COMPOUND": "CC(C)CN1[C@H](c2ccc(/C=C/C(=O)O)cc2)c2[nH]c3ccccc3c2C[C@H]1C", "pIC50": 8.19}
{"COMPOUND": "C[C@@H]1Cc2c([nH]c3ccccc23)[C@@H](c2ccc(Cl)cc2)N1CCO", "pIC50": 7.40}
{"COMPOUND": "C[C@@H]1Cc2c([nH]c3ccccc23)[C@@H](c2ccc(Cl)cc2)N1CCC(=O)O", "pIC50": 5.75}
{"COMPOUND": "O=C(O)CCN1CCc2c([nH]c3ccccc23)C1c1ccc(Cl)cc1 (racemic)", "pIC50": 4.86}
{"COMPOUND": "C[C@@H]1Cc2c([nH]c3ccccc23)[C@@H](c2ccc(Cl)cc2)N1C[C@H](C)C(=O)O", "pIC50": 7.15}
{"COMPOUND": "C[C@@H]1Cc2c([nH]c3ccc(O)cc23)[C@@H](c2ccc(Cl)cc2)N1CCO", "pIC50": 7.65}

###

Assay: Fraction unbound in Han Wistar rat 10% plasma by equilibrium dialysis
Type: ADME, cell-free
hey, just use Satisfied if measured fraction unbound is less than 0.03, otherwise Not satisfied

{"COMPOUND": "CC(C)CN1[C@H](c2ccc(/C=C/C(=O)O)cc2)c2[nH]c3ccccc3c2C[C@H]1C", "LABEL CLASS": "Satisfied"}
{"COMPOUND": "OCCN1CCc2c([nH]c3ccccc23)C1c1ccc(Cl)cc1 (racemic)", "LABEL CLASS": "Not satisfied"}
{"COMPOUND": "C[C@@H]1Cc2c([nH]c3ccccc23)[C@@H](c2c(F)cc(/C=C/C(=O)O)cc2F)N1CC(C)(C)F", "LABEL CLASS": "Satisfied"}
{"COMPOUND": "C[C@@H]1Cc2c([nH]c3ccccc23)[C@@H](c2ccc(Cl)cc2)N1C[C@H](C)C(=O)O", "LABEL CLASS": "Not satisfied"}
{"COMPOUND": "O=C(O)CCN1CCc2c([nH]c3ccccc23)C1c1ccc(Cl)cc1 (racemic)", "LABEL CLASS": "Not satisfied"}
{"COMPOUND": "C[C@H](CO)CN1[C@H](c2ccc(/C=C/C(=O)O)cc2)c2[nH]c3ccccc3c2C[C@H]1C", "LABEL CLASS": "Not satisfied"}

###

Assay: Oral bioavailability in SCID mouse at 5.6 umol/kg
Assay type: ADME, organism-based
Details: in vivo
VALUE KIND: bioavailability (%)

{"COMPOUND SMILES": "C[C@@H]1Cc2c([nH]c3ccccc23)[C@@H](c2c(F)cc(/C=C/C(=O)O)cc2F)N1CC(C)(C)F", "VALUE KIND": "bioavailability", "VALUE": 128}

###

Test: Clearance in Han Wistar rat at 5 umol/kg, iv and 13 umol/kg, po
Assay type: ADME, organism-based
Settings: in vivo

{"COMPOUND SMILES": "CC(C)CN1[C@H](c2ccc(/C=C/C(=O)O)cc2)c2[nH]c3ccccc3c2C[C@H]1C", "clearance (mL/min/kg)": 6.2}

###

Assay: Fraction unbound in human 10% plasma by equilibrium dialysis
Type: ADME, cell-free
Measured fraction unbound, listed per entry.

{"COMPOUND SMILES": "C[C@H](CO)CN1[C@H](c2ccc(/C=C/C(=O)O)cc2)c2[nH]c3ccccc3c2C[C@H]1C", "fraction unbound": 0.046}
{"COMPOUND SMILES": "C[C@@H]1Cc2c([nH]c3ccccc23)[C@@H](c2ccc(Cl)cc2)N1C[C@H](C)C(=O)O", "fraction unbound": 0.015}
{"COMPOUND SMILES": "C[C@@H]1Cc2c([nH]c3ccccc23)[C@@H](c2c(F)cc(/C=C/C(=O)O)cc2F)N1CC(C)(C)F", "fraction unbound": 0.0026}
{"COMPOUND SMILES": "CC(C)CN1[C@H](c2ccc(/C=C/C(=O)O)cc2)c2[nH]c3ccccc3c2C[C@H]1C", "fraction unbound": 0.0051}

###

Target: UniProtKB P06401
Sequence (P06401 whole entry): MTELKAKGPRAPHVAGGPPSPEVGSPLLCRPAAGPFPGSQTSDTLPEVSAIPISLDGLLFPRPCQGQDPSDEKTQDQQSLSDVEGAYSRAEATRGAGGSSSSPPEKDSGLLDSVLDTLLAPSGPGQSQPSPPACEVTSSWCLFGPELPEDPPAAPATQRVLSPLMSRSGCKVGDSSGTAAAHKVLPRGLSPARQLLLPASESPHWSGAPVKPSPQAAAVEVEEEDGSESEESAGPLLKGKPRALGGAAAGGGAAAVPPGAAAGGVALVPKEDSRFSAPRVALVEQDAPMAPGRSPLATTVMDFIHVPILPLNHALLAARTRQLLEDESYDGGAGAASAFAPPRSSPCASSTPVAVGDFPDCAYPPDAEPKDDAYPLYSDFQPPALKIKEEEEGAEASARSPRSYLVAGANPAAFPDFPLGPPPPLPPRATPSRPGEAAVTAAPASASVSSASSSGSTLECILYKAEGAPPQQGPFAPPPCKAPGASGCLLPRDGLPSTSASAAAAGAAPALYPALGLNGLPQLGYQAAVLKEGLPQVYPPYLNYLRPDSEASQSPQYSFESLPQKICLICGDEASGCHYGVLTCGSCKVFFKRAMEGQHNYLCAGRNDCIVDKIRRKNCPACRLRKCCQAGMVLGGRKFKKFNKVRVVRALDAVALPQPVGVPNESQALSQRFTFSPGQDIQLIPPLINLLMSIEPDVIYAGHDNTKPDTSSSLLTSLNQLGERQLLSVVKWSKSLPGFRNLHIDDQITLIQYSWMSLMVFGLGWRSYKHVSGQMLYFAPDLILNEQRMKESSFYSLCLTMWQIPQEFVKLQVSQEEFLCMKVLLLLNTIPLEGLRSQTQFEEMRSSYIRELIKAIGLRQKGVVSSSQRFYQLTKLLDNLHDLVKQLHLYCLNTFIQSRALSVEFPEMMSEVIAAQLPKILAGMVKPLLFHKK
Experiment: Agonist activity at progesterone receptor (unknown origin) at 100 uM
The source made the active and inactive calls. No cut-off for these calls is given here.

{"COMPOUND SMILES": "C[C@@H]1Cc2c([nH]c3ccccc23)[C@@H](c2ccc(Cl)cc2)N1CCO", "percent agonist activity": "15%"}
{"COMPOUND SMILES": "CC/C(=C(\\c1ccccc1)c1ccc(/C=C/C(=O)O)cc1)c1ccccc1", "percent agonist activity": "inactive"}
{"COMPOUND SMILES": "CC/C(=C(\\c1ccc(O)cc1)c1ccc(/C=C/C(=O)O)cc1)c1ccccc1", "percent agonist activity": "inactive"}
{"COMPOUND SMILES": "C[C@@H]1Cc2c([nH]c3ccccc23)[C@@H](c2ccc(Cl)cc2)N1CCC(=O)O", "percent agonist activity": "15%"}
